Reported protein stability index values for a set of variants
B1: NP_009172.2 (parent)
chain: LPALFTDLYSQEITAEEAREALP

Variants of: B1
Assay: protein stability index of a GFP-peptide fusion (GPS, HEK-293T) (PSI 1-6); higher = more stable;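 also: lentivirally expressed fusion library, cells FACS-sorted into six equal-sized GFP/DsRed ratio bins, PSI computed from sequencing read fractions per bin weighted by bin number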
Details: c terminus: native

| change | protein stability index |
| --- | --- |
| E20Q | 2.22 |
| R19I | 2.45 |
| E20D | 2.65 |
| T14C | 2.48 |
| D7N | 3.52 |
| A21G | 2.81 |
| E20M | 2.39 |
| I13P | 3.87 |
| A18M | 2.75 |
| A3Q | 2.22 |
| F5N | 5.52 |
| R19E | 2.81 |
| T14Y | 2.56 |
| Y9G | 5.3 |
| P2Y | 2.85 |
| L4P | 4.94 |
| A18S | 2.72 |
| S10N | 2.61 |
| S10W | 2.26 |
| A21R | 2.02 |
| P2T | 2.51 |
| T6H | 4.28 |
| F5T | 5.25 |
| P23C | 4.21 |
| T6F | 4.22 |
| P2Q | 2.69 |
| A18Q | 2.86 |

This collection of values is drawn from the supplement of paper PMC10567573.
